So I've got a bunch of compounds here, and I need their growth values.
System: OVCAR-4 ovarian
Experiment: NCI-60 one-dose screen, 48 h (100 = growth as untreated, 0 = no growth, -100 = all killed)
Conditions: 10 µM unless noted
The panel holds about 83,000 compounds, 20% with a hit somewhere; the sample as a whole holds those more often.
Expressed in %, but write only the number.

Input line: What growth appears in the records for this compound with OVCAR-4 ovarian? O=C(CSc1nc2ccccc2c(=O)n1-c1ccccc1)N/N=C/c1ccc(Oc2ccc(Cl)cc2)cc1
Output line: 73.7

Input line: Another compound to look at: NC1C2CCC1CN(c1cnc(C(=O)Nc3cc(F)cc4cccnc34)cn1)C2 (stereo not given)
Output line: 18.5

Input line: Another compound to look at: CC(C)=CCC[C@](C)(O)[C@H]1CC[C@]2(C)[C@@H]1CC[C@@H]1[C@@]3(C)CC[C@H](N)C(C)(C)[C@@H]3CC[C@]12C
Output line: 97.5

Input line: Another compound to look at: O=C(/C=C/c1cc(Cl)ccc1Cl)Nc1ncc(Cc2ccc(Cl)cc2)s1
Output line: 30.4

Input line: Another compound to look at: O=C(/C=C/c1ccccc1)c1cccc(O)c1
Output line: 105
